# Assay Remarks: in vivo
# Design: species or system mice
# Measurement Conditions: male, NODSCID 1L2RγKO, mouse, iv, total radioactivity, Spleen uptake
Quantity Kind: tissue uptake at 1 h (%ID/g)
Give bare numbers, in %ID/g.

See these solved cases before continuing.
Molecule	Unit Abbreviation	Experimental Value
O=C(O)CCC[C@H](NC(=O)N[C@@H](CCCCNC(=O)[C@H](Cc1c2ccccc2cc2ccccc12)NC(=O)[C@H]1CC[C@H](CNC(=O)CN2CCN(CC(=O)O)CCN(CC(=O)O)CCN(CC(=O)O)CC2)CC1)C(=O)O)C(=O)O [177Lu-HTK03149, metal not drawn]	%ID/g	0.26
COc1ccc(CCCC(=O)NCC(=O)N[C@@H](CCCCNC(=O)CN2CCN(CC(=O)O)CCN(CC(=O)O)CCN(CC(=O)O)CC2)C(=O)NC[C@H]2CC[C@H](C(=O)N[C@@H](Cc3c4ccccc4cc4ccccc34)C(=O)NCCCC[C@H](NC(=O)N[C@@H](COCC(=O)O)C(=O)O)C(=O)O)CC2)cc1 [177Lu-HTK04028, metal not drawn]	%ID/g	1.53

// each molecule listed below needs its tissue uptake at 1 h
1. COc1ccc(CCCC(=O)NCC(=O)N[C@@H](CCCCNC(=O)CN2CCN(CC(=O)O)CCN(CC(=O)O)CCN(CC(=O)O)CC2)C(=O)NC[C@H]2CC[C@H](C(=O)N[C@@H](Cc3c4ccccc4cc4ccccc34)C(=O)NCCCC[C@H](NC(=O)N[C@@H](CSCC(=O)O)C(=O)O)C(=O)O)CC2)cc1 [177Lu-HTK04048, metal not drawn]
2. COc1ccc(CCCC(=O)NCC(=O)N[C@@H](CCCCNC(=O)CN2CCN(CC(=O)O)CCN(CC(=O)O)CCN(CC(=O)O)CC2)C(=O)NC[C@H]2CC[C@H](C(=O)N[C@@H](Cc3c4ccccc4cc4ccccc34)C(=O)NCCCC[C@H](NC(=O)N[C@@H](CCCC(=O)O)C(=O)O)C(=O)O)CC2)cc1 [177Lu-HTK03170, metal not drawn]

Output:
[2.54, 1.64]

Task: Looking for the measured tissue uptake at 1 h of O=C(O)CCC[C@H](NC(=O)N[C@@H](CCCCNC(=O)[C@H](Cc1c2ccccc2cc2ccccc12)NC(=O)[C@H]1CC[C@H](CNC(=O)[C@H](CCCCNC(=O)CN2CCN(CC(=O)O)CCN(CC(=O)O)CCN(CC(=O)O)CC2)NC(=O)CNC(=O)CCCc2ccc(Cl)cc2)CC1)C(=O)O)C(=O)O [177Lu-HTK03153, metal not drawn] , can you help?
Output: 2.54

* * *

# Assay Remarks: in vivo
# Parameters: species or system mice
# Measurement Conditions: male, NODSCID 1L2RγKO, mouse, iv, total radioactivity, Tumor uptake
Kindly supply the reported tissue uptake at 120 h values for the records listed here.
One number for each entry, in %ID/g.

Compound	Unit Abbreviation	Experimental Value
COc1ccc(CCCC(=O)NCC(=O)N[C@@H](CCCCNC(=O)CN2CCN(CC(=O)O)CCN(CC(=O)O)CCN(CC(=O)O)CC2)C(=O)NC[C@H]2CC[C@H](C(=O)N[C@@H](Cc3c4ccccc4cc4ccccc34)C(=O)NCCCC[C@H](NC(=O)N[C@@H](CSCC(=O)O)C(=O)O)C(=O)O)CC2)cc1 [177Lu-HTK04048, metal not drawn]	%ID/g	74

// each compound listed below needs its tissue uptake at 120 h
1. COc1ccc(CCCC(=O)NCC(=O)N[C@@H](CCCCNC(=O)CN2CCN(CC(=O)O)CCN(CC(=O)O)CCN(CC(=O)O)CC2)C(=O)NC[C@H]2CC[C@H](C(=O)N[C@@H](Cc3c4ccccc4cc4ccccc34)C(=O)NCCCC[C@H](NC(=O)N[C@@H](COCC(=O)O)C(=O)O)C(=O)O)CC2)cc1 [177Lu-HTK04028, metal not drawn]
2. COc1ccc(CCCC(=O)NCC(=O)N[C@@H](CCCCNC(=O)CN2CCN(CC(=O)O)CCN(CC(=O)O)CCN(CC(=O)O)CC2)C(=O)NC[C@H]2CC[C@H](C(=O)N[C@@H](Cc3c4ccccc4cc4ccccc34)C(=O)NCCCC[C@H](NC(=O)N[C@@H](CCCC(=O)O)C(=O)O)C(=O)O)CC2)cc1 [177Lu-HTK03170, metal not drawn]
3. O=C(O)CCC[C@H](NC(=O)N[C@@H](CCCCNC(=O)[C@H](Cc1c2ccccc2cc2ccccc12)NC(=O)[C@H]1CC[C@H](CNC(=O)[C@H](CCCCNC(=O)CN2CCN(CC(=O)O)CCN(CC(=O)O)CCN(CC(=O)O)CC2)NC(=O)CNC(=O)CCCc2ccc(Cl)cc2)CC1)C(=O)O)C(=O)O [177Lu-HTK03153, metal not drawn]
4. O=C(O)CCC[C@H](NC(=O)N[C@@H](CCCCNC(=O)[C@H](Cc1c2ccccc2cc2ccccc12)NC(=O)[C@H]1CC[C@H](CNC(=O)CN2CCN(CC(=O)O)CCN(CC(=O)O)CCN(CC(=O)O)CC2)CC1)C(=O)O)C(=O)O [177Lu-HTK03149, metal not drawn]

Output:
1. 28.4
2. 61.9
3. 86.4
4. 16.4

* * *

# Assay Remarks: in vivo
# Parameters: species or system mice
# Measurement Conditions: male, NODSCID 1L2RγKO, mouse, iv, total radioactivity, Thyroid uptake
Kindly supply the reported tissue uptake at 72 h values for the records listed here.
Give bare numbers, in %ID/g.

See these solved cases before continuing.
Compound	tissue uptake at 72 h / %ID/g
COc1ccc(CCCC(=O)NCC(=O)N[C@@H](CCCCNC(=O)CN2CCN(CC(=O)O)CCN(CC(=O)O)CCN(CC(=O)O)CC2)C(=O)NC[C@H]2CC[C@H](C(=O)N[C@@H](Cc3c4ccccc4cc4ccccc34)C(=O)NCCCC[C@H](NC(=O)N[C@@H](CCCC(=O)O)C(=O)O)C(=O)O)CC2)cc1 [177Lu-HTK03170, metal not drawn]	0.15
COc1ccc(CCCC(=O)NCC(=O)N[C@@H](CCCCNC(=O)CN2CCN(CC(=O)O)CCN(CC(=O)O)CCN(CC(=O)O)CC2)C(=O)NC[C@H]2CC[C@H](C(=O)N[C@@H](Cc3c4ccccc4cc4ccccc34)C(=O)NCCCC[C@H](NC(=O)N[C@@H](CSCC(=O)O)C(=O)O)C(=O)O)CC2)cc1 [177Lu-HTK04048, metal not drawn]	0.31
COc1ccc(CCCC(=O)NCC(=O)N[C@@H](CCCCNC(=O)CN2CCN(CC(=O)O)CCN(CC(=O)O)CCN(CC(=O)O)CC2)C(=O)NC[C@H]2CC[C@H](C(=O)N[C@@H](Cc3c4ccccc4cc4ccccc34)C(=O)NCCCC[C@H](NC(=O)N[C@@H](COCC(=O)O)C(=O)O)C(=O)O)CC2)cc1 [177Lu-HTK04028, metal not drawn]	0.24
O=C(O)CCC[C@H](NC(=O)N[C@@H](CCCCNC(=O)[C@H](Cc1c2ccccc2cc2ccccc12)NC(=O)[C@H]1CC[C@H](CNC(=O)[C@H](CCCCNC(=O)CN2CCN(CC(=O)O)CCN(CC(=O)O)CCN(CC(=O)O)CC2)NC(=O)CNC(=O)CCCc2ccc(Cl)cc2)CC1)C(=O)O)C(=O)O [177Lu-HTK03153, metal not drawn]	0.85

Task: Looking for the measured tissue uptake at 72 h of O=C(O)CCC[C@H](NC(=O)N[C@@H](CCCCNC(=O)[C@H](Cc1c2ccccc2cc2ccccc12)NC(=O)[C@H]1CC[C@H](CNC(=O)CN2CCN(CC(=O)O)CCN(CC(=O)O)CCN(CC(=O)O)CC2)CC1)C(=O)O)C(=O)O [177Lu-HTK03149, metal not drawn] , can you help?
Output: 0.08

* * *

# Assay Remarks: in vivo
# Parameters: species or system mice
# Measurement Conditions: male, NODSCID 1L2RγKO, mouse, iv, total radioactivity, Liver uptake
Quantity Kind: tissue uptake at 24 h (%ID/g)
One number for each entry, in %ID/g.

See these solved cases before continuing.
Molecule	tissue uptake at 24 h, %ID/g
O=C(O)CCC[C@H](NC(=O)N[C@@H](CCCCNC(=O)[C@H](Cc1c2ccccc2cc2ccccc12)NC(=O)[C@H]1CC[C@H](CNC(=O)[C@H](CCCCNC(=O)CN2CCN(CC(=O)O)CCN(CC(=O)O)CCN(CC(=O)O)CC2)NC(=O)CNC(=O)CCCc2ccc(Cl)cc2)CC1)C(=O)O)C(=O)O [177Lu-HTK03153, metal not drawn]	1.52
COc1ccc(CCCC(=O)NCC(=O)N[C@@H](CCCCNC(=O)CN2CCN(CC(=O)O)CCN(CC(=O)O)CCN(CC(=O)O)CC2)C(=O)NC[C@H]2CC[C@H](C(=O)N[C@@H](Cc3c4ccccc4cc4ccccc34)C(=O)NCCCC[C@H](NC(=O)N[C@@H](CSCC(=O)O)C(=O)O)C(=O)O)CC2)cc1 [177Lu-HTK04048, metal not drawn]	0.45

Alright, here's another molecule for you.
Task: Looking for the measured tissue uptake at 24 h of COc1ccc(CCCC(=O)NCC(=O)N[C@@H](CCCCNC(=O)CN2CCN(CC(=O)O)CCN(CC(=O)O)CCN(CC(=O)O)CC2)C(=O)NC[C@H]2CC[C@H](C(=O)N[C@@H](Cc3c4ccccc4cc4ccccc34)C(=O)NCCCC[C@H](NC(=O)N[C@@H](CCCC(=O)O)C(=O)O)C(=O)O)CC2)cc1 [177Lu-HTK03170, metal not drawn] , can you help?
Output: 0.69
